Test system: Lung adenocarcinoma (pleural effusion)
Assay Info: MiCK assay, drug-induced apoptosis, Table 4 tumor B1
Type: cell-based, human
Condition Notes: Table 4 tumor B1: Lung adenocarcinoma (pleural effusion); 48 hours with drug
Numbered stars: 1 amine (or outer) side, 2 acyl side, 3 side chain; on linkers, the order of the positions; unused ones are H or OH. Bridge positions count the residues as written; N and C are the ends. Square brackets hold non-standard residues; d marks the D form. Peptide text beside a SMILES is read from it. I, II: the chains in the order shown. Actinocin(9to1) = Cc1c2oc3c(C)ccc(C(=O)[*:1])c3nc-2c(C(=O)[*:2])c(N)c1=O; NMeV = CN[C@H](C(=O)O)C(C)C; Sar = CNCC(=O)O
Consider the following compounds and their measured kinetic units (KU) of apoptosis readings.
Unit KU implied. Number only.

O=NN(CCCl)C(=O)NCCCl [Carmustine] : 1.20

## Task State the recorded kinetic units (KU) of apoptosis for this entry: CC[C@@]1(O)C(=O)OCc2c1cc1n(c2=O)Cc2cc3c(CN(C)C)c(O)ccc3nc2-1 [Topotecan]
## Result 1.30

## Task I am curious: what kinetic units (KU) of apoptosis value has been reported for Cc1c2oc3c(C)ccc(C(=O)N[C@@H]4C(=O)N[C@H](C(C)C)C(=O)N5CCC[C@H]5C(=O)N(C)CC(=O)N(C)[C@@H](C(C)C)C(=O)O[C@@H]4C)c3nc-2c(C(=O)N[C@@H]2C(=O)N[C@H](C(C)C)C(=O)N3CCC[C@H]3C(=O)N(C)CC(=O)N(C)[C@@H](C(C)C)C(=O)O[C@@H]2C)c(N)c1=O [Dactinomycin] (I: T[dV]P[Sar][NMeV] / II: T[dV]P[Sar][NMeV]; ester I:1-I:C, II:1-II:C; linker I:N-II:N via Actinocin(9to1)) ?
## Result 2.70

## Task State the recorded kinetic units (KU) of apoptosis for this entry: COc1cccc2c1C(=O)c1c(O)c3c(c(O)c1C2=O)C[C@@](O)(C(=O)CO)C[C@@H]3O[C@H]1C[C@H](N)[C@H](O)[C@H](C)O1 [Doxorubicin]
## Result 3.50

## Task // lookup kinetic units (KU) of apoptosis for COc1cccc2c1C(=O)c1c(O)c3c(c(O)c1C2=O)C[C@@](O)(C(=O)CO)C[C@@H]3O[C@H]1C[C@H](N)[C@@H](O)[C@H](C)O1 [Epirubicin]
## Result 2.70

## Task Consider the compound shown here: CO[C@@]12[C@H](COC(N)=O)C3=C(C(=O)C(C)=C(N)C3=O)N1C[C@@H]1N[C@@H]12 [Mitomycin] What is its recorded kinetic units (KU) of apoptosis?
## Result 0.90

## Task Record request: kinetic units (KU) of apoptosis value, item CCc1c2c(nc3ccc(OC(=O)N4CCC(N5CCCCC5)CC4)cc13)-c1cc3c(c(=O)n1C2)COC(=O)[C@]3(O)CC [Irinotecan]
## Result 0.60

----------
Listed here are molecules together with their documented kinetic units (KU) of apoptosis.
Test system: Probable mesothelioma (pleural effusion)
Assay Info: MiCK assay, drug-induced apoptosis, Table 3 tumor A2
Assay type: cell-based, human
Condition Notes: Table 3 tumor A2: Probable mesothelioma (pleural effusion); 48 hours with drug

## Task Give its kinetic units (KU) of apoptosis value. Item: CCC1=C[C@@H]2CN(C1)Cc1c([nH]c3ccccc13)[C@@](C(=O)OC)(c1cc3c(cc1OC)N(C)[C@H]1[C@@](O)(C(=O)OC)[C@H](OC(C)=O)[C@]4(CC)C=CCN5CC[C@]31[C@@H]54)C2 [Vinorelbine]
## Result 2.10 KU

## Task Any idea what its kinetic units (KU) of apoptosis is? The molecule is C#Cc1cccc(Nc2ncnc3cc(OCCOC)c(OCCOC)cc23)c1 [Tarceva]
## Result 0.80 KU

## Task Consider the molecule shown here: CC(=O)[C@]1(O)Cc2c(O)c3c(c(O)c2[C@@H](O[C@H]2C[C@H](N)[C@H](O)[C@H](C)O2)C1)C(=O)c1ccccc1C3=O [Idarubicin] What is its recorded kinetic units (KU) of apoptosis?
## Result 4.00 KU
